Would you kindly list log10(IC50) for each of these binders?
# Study target: T1, wild-type human PTHR (human, UniProt Q03431 27-593)
# T1 construct: whole, on cells; also called PTHR-WT; intact PTHR
# T1 sequence (looked up): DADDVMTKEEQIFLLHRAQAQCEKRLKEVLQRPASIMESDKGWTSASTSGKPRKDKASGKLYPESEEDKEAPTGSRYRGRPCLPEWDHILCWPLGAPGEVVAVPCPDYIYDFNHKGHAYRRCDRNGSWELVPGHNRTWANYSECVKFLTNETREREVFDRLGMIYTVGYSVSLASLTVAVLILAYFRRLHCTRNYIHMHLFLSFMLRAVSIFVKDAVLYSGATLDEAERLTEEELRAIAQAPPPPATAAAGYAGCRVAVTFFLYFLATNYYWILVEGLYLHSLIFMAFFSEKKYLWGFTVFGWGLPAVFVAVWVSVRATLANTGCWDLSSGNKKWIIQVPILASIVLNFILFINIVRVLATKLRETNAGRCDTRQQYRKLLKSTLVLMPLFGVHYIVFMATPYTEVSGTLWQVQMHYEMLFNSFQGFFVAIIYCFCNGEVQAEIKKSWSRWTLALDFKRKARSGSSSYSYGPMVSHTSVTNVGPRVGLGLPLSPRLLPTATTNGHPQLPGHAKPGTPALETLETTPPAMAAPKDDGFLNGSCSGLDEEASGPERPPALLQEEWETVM
# Procedure summary: competition binding, HKRK-B7 cells, 125I-PTH(1-34) tracer
# Protocol: Receptor binding—Binding to the wild-type human PTHR in intact HKRK-B7 cells and ROS 17/2.8 cells was assessed using ¹²⁵I-PTH(1-34) as a tracer radioligand, as described (Shimizu, M., (2001) Endocrinology 142:3068-3074). […] The binding mixture was then removed by aspiration, the cells were rinsed three times with binding buffer, lysed in 1 M NaOH, and the entire lysate was counted for gamma-irradiation in a gamma counter. […]
Where no end group is shown, it is not given here.
Scale: decimal log of IC50, IC50 in nM.

// recorded log10(IC50) for SVSEIQLMHNLGKHLNSMERVEWLRKKLQAV-NH2 [PTH(1-31)NH2 Asp^30→Ala] : 1.80

// recorded log10(IC50) for SVSEIQLMHNLGKHLNSMEXVEWLRKKLQDV (citrulline (Cit) at 20; C-terminal amide) [PTH(1-31)NH2 Arg^20→Cit] : 4.08

// recorded log10(IC50) for SVSEIQLMHNLGKHLNSMERVEWARKKLQDV-NH2 [PTH(1-31)NH2 Leu^24→Ala] : 2.91

// recorded log10(IC50) for SVSEIQLMHNLGKHLNSMERVEWLRKKLQDA-NH2 [PTH(1-31)NH2 Val^31→Ala] : 2.25

// recorded log10(IC50) for SVSEIQLMHNLGKHLNSMERVEWLRAKLQDV-NH2 [PTH(1-31)NH2 Lys^26→Ala] : 2.10

// recorded log10(IC50) for SVSEIQLMHNLGKHLNSMERVEWLRKALQDV-NH2 [PTH(1-31)NH2 Lys^27→Ala] : 2.34

// recorded log10(IC50) for SVSEIQLMHNLGKHLNSMERVEALRKKLQDV-NH2 [PTH(1-31)NH2 Trp^23→Ala] : 3.12

// recorded log10(IC50) for SVSEIQLMHNLGKHLNSMARVEWLRKKLQDV-NH2 [PTH(1-31)NH2 Glu^19→Ala] : 1.69

// recorded log10(IC50) for SVSEIQLMHNLGKHLNSMERVEWLAKKLQDV-NH2 [PTH(1-31)NH2 Arg^25→Ala] : 2.45

// recorded log10(IC50) for SVSEIQLMHNLGKHLNSMERVEWLRKKLADV-NH2 [PTH(1-31)NH2 Gln^29→Ala] : 1.64
